- assay explanation: ABTS scavenging assay
- setup conditions: 1000 µg/mL
% ABTS Scavenging Mean ± SEM listing for selected compounds.
Only the number, expressed in %, is required.

>  <compound>
Oc1cc(O)cc(O)c1 [Compound-IV, Phloroglucinol]

>  <readout unit>
%

>  <value>
54

$$$$
>  <compound>
O=C(O)c1cc(O)c(O)c(O)c1 [Compound-III, Gallic acid]

>  <readout unit>
%

>  <value>
65

$$$$
>  <compound>
O=c1oc2c(O)c(O)cc3c(=O)oc4c(O)c(O)cc1c4c23 [Compound-II, Ellagic acid]

>  <readout unit>
%

>  <value>
69

$$$$

Now for the compound whose % ABTS Scavenging Mean ± SEM we want.
Find the recorded % ABTS Scavenging Mean ± SEM belonging to O=C1O[C@H]([C@@H](O)CO)C(O)=C1O [Ascorbic acid, reference compound] and report it.
90

----------
- assay explanation: DPPH scavenging assay
- setup conditions: 62.5 µg/mL
% DPPH Scavenging Mean ± SEM listing for selected compounds.
Give the number; % is assumed, so skip it.

Before answering, review these 3 worked examples.
>  <compound>
O=C(O)c1cc(O)c(O)c(O)c1 [Compound-III, Gallic acid]

>  <value>
48

$$$$
>  <compound>
Oc1cc(O)cc(O)c1 [Compound-IV, Phloroglucinol]

>  <value>
36

$$$$
>  <compound>
O=c1oc2c(O)c(O)cc3c(=O)oc4c(O)c(O)cc1c4c23 [Compound-II, Ellagic acid]

>  <value>
57

$$$$

Item under review: O=C1O[C@H]([C@@H](O)CO)C(O)=C1O [Ascorbic acid, reference compound] . Reported % DPPH Scavenging Mean ± SEM?
73

----------
- tested system: Acetyl cholinesterase (Electron-eel Type, VI-S) (Electrophorus electricus)
- Construct: purchased Sigma-Aldrich, Germany
- assay explanation: biochemical
- Type: biochemical
- setup conditions: 250 µg/mL
measurement name: % AChE Mean ± SEM (%)
Give a bare numeral; the unit % is implied.

>  <compound>
O=C(O)c1cc(O)c(O)c(O)c1 [Compound-III, Gallic acid]

>  <% AChE Mean ± SEM (%)>
55

$$$$
>  <compound>
O=C(/C=C/c1ccc(O)c(O)c1)O[C@@H]1C[C@](O)(C(=O)O)C[C@@H](O)[C@H]1O [Compound-I, Chlorogenic acid]

>  <% AChE Mean ± SEM (%)>
76

$$$$
>  <compound>
O=c1oc2c(O)c(O)cc3c(=O)oc4c(O)c(O)cc1c4c23 [Compound-II, Ellagic acid]

>  <% AChE Mean ± SEM (%)>
68

$$$$

Please look up its % AChE Mean ± SEM: Oc1cc(O)cc(O)c1 [Compound-IV, Phloroglucinol]
40

----------
- tested system: Acetyl cholinesterase (Electron-eel Type, VI-S) (Electrophorus electricus, UniProt O42275)
- Construct: purchased Sigma-Aldrich, Germany
- Sequence (O42275 24-633): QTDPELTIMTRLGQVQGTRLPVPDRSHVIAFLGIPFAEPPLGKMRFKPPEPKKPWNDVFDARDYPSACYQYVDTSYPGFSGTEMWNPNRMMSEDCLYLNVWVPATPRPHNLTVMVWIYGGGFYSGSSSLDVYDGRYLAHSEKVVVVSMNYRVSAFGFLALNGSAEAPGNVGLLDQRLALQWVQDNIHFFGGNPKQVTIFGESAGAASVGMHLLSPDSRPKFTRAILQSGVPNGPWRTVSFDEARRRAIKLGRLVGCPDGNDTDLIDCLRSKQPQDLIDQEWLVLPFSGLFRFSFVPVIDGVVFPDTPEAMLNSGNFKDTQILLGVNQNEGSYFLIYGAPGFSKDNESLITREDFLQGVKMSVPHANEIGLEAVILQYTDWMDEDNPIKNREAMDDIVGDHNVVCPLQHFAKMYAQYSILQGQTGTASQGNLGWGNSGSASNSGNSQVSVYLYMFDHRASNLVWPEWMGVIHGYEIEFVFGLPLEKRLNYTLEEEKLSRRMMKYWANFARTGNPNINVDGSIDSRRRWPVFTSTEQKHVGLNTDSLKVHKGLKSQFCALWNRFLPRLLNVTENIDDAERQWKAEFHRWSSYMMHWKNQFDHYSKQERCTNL
- assay explanation: biochemical
- Type: biochemical
- setup conditions: 31.05 µg/mL
- Experimental: Ellman assay was used to evaluate E. umbellata fruit extracts and isolated compounds for their anticholinesterase potentials. About 205 μL extract/compound solutions and 5 μL of AChE (0.03 U/mL)/BChE (0.01 U/mL) along with catalyst DTNB (5 μL) were taken in a cuvette and kept at 30 °C in hot water bath for 15 min. […] As a negative control solution all the above mentioned components except extracts and isolated compounds were mixed in the mentioned order. […]
measurement name: % AChE Mean ± SEM (%)
Please respond with the number in % and leave the unit unwritten.

Solved entries (count: 2):
>  <substance smiles>
O=C(O)c1cc(O)c(O)c(O)c1

>  <tested system>
Acetyl cholinesterase (Electron-eel Type, VI-S) (Electrophorus electricus, UniProt O42275)

>  <readout unit>
%

>  <% AChE Mean ± SEM>
39

$$$$
>  <substance smiles>
Oc1cc(O)cc(O)c1

>  <tested system>
Acetyl cholinesterase (Electron-eel Type, VI-S) (Electrophorus electricus, UniProt O42275)

>  <readout unit>
%

>  <% AChE Mean ± SEM>
21

$$$$

Proceed to the following item.
% AChE Mean ± SEM for "O=c1oc2c(O)c(O)cc3c(=O)oc4c(O)c(O)cc1c4c23" ?
41
